Catalogue of compounds with associated IC50
system: MAGL (Homo sapiens, UniProt Q99685)
Construct: Proteomes (human prefrontal cortex or cell membrane fractions); from tissue
Sequence (Q99685 whole entry): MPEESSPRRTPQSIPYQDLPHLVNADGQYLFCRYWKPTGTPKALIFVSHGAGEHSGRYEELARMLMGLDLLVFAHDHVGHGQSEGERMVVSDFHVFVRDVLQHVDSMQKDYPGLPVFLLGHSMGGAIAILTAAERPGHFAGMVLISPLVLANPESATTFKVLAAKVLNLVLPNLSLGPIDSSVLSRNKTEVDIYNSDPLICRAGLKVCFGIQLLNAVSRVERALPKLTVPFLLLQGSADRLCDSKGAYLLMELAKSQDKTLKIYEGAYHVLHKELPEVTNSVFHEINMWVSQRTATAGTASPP
measurementProtocol: In vitro competitive activity-based protein profiling (human), MAGL
Type: biochemical
condition: human PC3

Record excerpt, results attached:
Task: Requested read-out: IC50. Entry: "Cc1cc(N2CCC(C(=O)O)CC2)c(CN2CCN(C(=O)OC(C(F)(F)F)C(F)(F)F)CC2)cc1F"
Output: ≤ 0.1 µM

Task: What do we get for CC1(C(=O)O)CCCN(c2cc(C(F)(F)F)ccc2CN2CCN(C(=O)OC(C(F)(F)F)C(F)(F)F)CC2)C1 (centres unmarked) ?
Output: ≤ 0.1 µM

Task: Please answer likewise for "O=C(O)CN1CCN(C(=O)c2cc(C(F)(F)F)ccc2CN2CCN(C(=O)OC(C(F)(F)F)C(F)(F)F)CC2)CC1"
Output: 0.1 to 1 µM

Task: Next up: "O=C(O)[C@@H]1CCCN(c2cc(C(F)(F)F)ccc2CN2CCN(C(=O)OC(C(F)(F)F)C(F)(F)F)CC2)C1"
Output: ≤ 0.1 µM

New cases:
Task: Could you share which IC50 value was measured for "O=C(O)CN1CCC2(C1)CN(c1cc(Cl)ccc1CN1CCN(C(=O)OC(C(F)(F)F)C(F)(F)F)CC1)C2" ?
Output: ≤ 0.1 µM

Provenance of the data: patent US10899737B2
